# assayed target: human orexin type 2 receptor (hOX2R) (Homo sapiens, UniProt O43614)
# Construct: expressed in transfected cells
# assay details: Measurement of orexin type 2 receptor agonist activity (FLIPR calcium fluorescence)
# Format: cell-based
# settings: CHO, CHO cells expressing hOX2R, FLIPR calcium fluorescence; read-out: hOx2 Emax (%)
measured endpoint: Emax

compound	result
C[C@H](F)C(=O)N1CC2(CC2)[C@H](NS(=O)(=O)C(F)F)[C@@H]1Cc1cccc(-c2ccccc2)c1F	90 to 100%
CS(=O)(=O)N[C@@H]1[C@H](Cc2cccc(-c3ccccc3)c2)N(C(=O)[C@H](O)CF)CC12CC2	90 to 100%
C[C@@H](CF)NC(=O)N1CC2(CC2)[C@H](NS(C)(=O)=O)[C@@H]1Cc1cccc(-c2ccccc2)c1F	90 to 100%
CN(CCF)C(=O)N1CC2(CC2)[C@H](NS(C)(=O)=O)[C@@H]1Cc1cccc(-c2ccccc2)c1F	90 to 100%
CCNC(=O)N1CC2(CC2)[C@H](NS(C)(=O)=O)[C@@H]1Cc1cccc(-c2ccccc2)c1 (racemic)	90 to 100%
CC[C@@H](O)C(=O)N1CC2(CC2)[C@H](NS(C)(=O)=O)[C@@H]1Cc1cccc(-c2ccccc2)c1 (racemic)	90 to 100%
CCS(=O)(=O)N[C@@H]1[C@H](Cc2cccc(-c3ccccc3)c2)N(C(=O)[C@H](O)C(F)(F)F)CC12CC2	90 to 100%

* * *

# assayed target: human orexin type 2 receptor (hOX2R) (Homo sapiens)
# Construct: expressed in transfected cells
# Sequence (O43614 1-444): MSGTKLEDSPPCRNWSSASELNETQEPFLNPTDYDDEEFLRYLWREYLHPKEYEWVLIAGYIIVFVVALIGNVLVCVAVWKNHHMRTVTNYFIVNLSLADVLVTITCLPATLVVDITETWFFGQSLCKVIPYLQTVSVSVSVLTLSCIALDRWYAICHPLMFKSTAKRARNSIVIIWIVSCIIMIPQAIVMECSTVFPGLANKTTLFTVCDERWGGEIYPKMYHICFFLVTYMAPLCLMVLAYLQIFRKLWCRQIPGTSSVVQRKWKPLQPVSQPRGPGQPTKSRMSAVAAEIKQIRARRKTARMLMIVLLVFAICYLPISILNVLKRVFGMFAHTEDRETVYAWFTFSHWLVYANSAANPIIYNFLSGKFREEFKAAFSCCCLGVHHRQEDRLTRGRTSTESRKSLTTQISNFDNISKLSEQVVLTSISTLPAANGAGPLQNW
# assay details: Measurement of orexin type 2 receptor agonist activity (FLIPR calcium fluorescence)
# Format: cell-based
# settings: CHO cells expressing hOX2R, FLIPR calcium fluorescence; read-out: hOx2 pEC50 (converted)
measured endpoint: EC50

1) COC1(C(=O)N2CC3(CC3)[C@H](NS(=O)(=O)CF)[C@@H]2Cc2cc(F)cc(-c3ccccc3)c2F)CC1 1 to 10 nM
2) CS(=O)(=O)N[C@@H]1[C@H](Cc2cccc(-c3ccccc3F)c2)N(C(=O)[C@H]2CCO2)CC12CC2 10 to 100 nM
3) C[C@H](F)S(=O)(=O)N[C@@H]1[C@H](Cc2cccc(-c3ccccc3)c2F)N(C(=O)[C@H]2CCO2)CC12CC2 1 to 10 nM
4) O=C(NCC(F)F)N1CC2(CC2)[C@H](NS(=O)(=O)C(F)F)[C@@H]1Cc1cc(F)cc(-c2cc(F)cc(F)c2)c1F 1 to 10 nM
5) CC(C)S(=O)(=O)N[C@@H]1[C@H](Cc2cccc(-c3ccccc3)c2)N(C(=O)[C@H]2CCO2)CC12CC2 1 to 10 nM
6) COC[C@H](F)C(=O)N1CC2(CC2)[C@H](NS(=O)(=O)CF)[C@@H]1Cc1cccc(-c2ccccc2)c1F 1 to 10 nM
7) CN(C)S(=O)(=O)N[C@@H]1[C@H](Cc2cccc(-c3ccccc3)c2F)N(C(=O)N2CCC2)CC12CC2 0.0794 to 1 nM

* * *

# assayed target: human orexin type 2 receptor (hOX2R) (Homo sapiens)
# Construct: expressed in transfected cells
# assay details: Measurement of orexin type 2 receptor agonist activity (FLIPR calcium fluorescence)
# Type: cell-based
# settings: CHO cells expressing hOX2R, FLIPR calcium fluorescence; read-out: hOx2 pEC50 (converted)
Listing: EC50 of selected compounds
measured endpoint: EC50

1. O=C([C@H]1CCO1)N1CC2(CC2)[C@H](NS(=O)(=O)C(F)F)[C@@H]1Cc1cccc(-c2cccc(F)c2)c1 1 to 10 nM
2. O=C(NCC1(F)CC1)N1CC2(CC2)[C@H](NS(=O)(=O)C(F)F)[C@@H]1Cc1cccc(-c2ccccc2)c1F 1 to 10 nM
3. COC1CN(C(=O)N2CC3(CC3)[C@H](NS(=O)(=O)CF)[C@@H]2Cc2cccc(-c3cc(F)cc(F)c3)c2F)C1 1 to 10 nM

* * *

# assayed target: human orexin type 2 receptor (hOX2R) (Homo sapiens, UniProt O43614)
# Construct: expressed in transfected cells
# assay details: Measurement of orexin type 2 receptor agonist activity (FLIPR calcium fluorescence)
# Assay type: cell-based
# settings: CHO cells expressing hOX2R, FLIPR calcium fluorescence; read-out: hOx2 pEC50 (converted)

molecule	EC50
CCNC(=O)N1CC2(CC2)C(NS(=O)(=O)CF)C1Cc1cccc(-c2ccccc2)c1F (racemic)	0.0794 to 1 nM
O=C(N1CC(F)C1)N1CC2(CC2)C(NS(=O)(=O)CF)C1Cc1cccc(-c2ccccc2)c1F (racemic)	1 to 10 nM
CC(C)C(=O)N1CC2(CC2)C(NS(C)(=O)=O)C1Cc1cccc(-c2ccccc2)c1 (racemic)	10 to 100 nM
N#CCS(=O)(=O)N[C@@H]1[C@H](Cc2cccc(-c3ccccc3)c2F)N(C(=O)[C@H]2CCO2)CC12CC2	10 to 100 nM

* * *

# assayed target: human orexin type 2 receptor (hOX2R) (Homo sapiens)
# Construct: expressed in transfected cells
# Sequence (O43614 1-444): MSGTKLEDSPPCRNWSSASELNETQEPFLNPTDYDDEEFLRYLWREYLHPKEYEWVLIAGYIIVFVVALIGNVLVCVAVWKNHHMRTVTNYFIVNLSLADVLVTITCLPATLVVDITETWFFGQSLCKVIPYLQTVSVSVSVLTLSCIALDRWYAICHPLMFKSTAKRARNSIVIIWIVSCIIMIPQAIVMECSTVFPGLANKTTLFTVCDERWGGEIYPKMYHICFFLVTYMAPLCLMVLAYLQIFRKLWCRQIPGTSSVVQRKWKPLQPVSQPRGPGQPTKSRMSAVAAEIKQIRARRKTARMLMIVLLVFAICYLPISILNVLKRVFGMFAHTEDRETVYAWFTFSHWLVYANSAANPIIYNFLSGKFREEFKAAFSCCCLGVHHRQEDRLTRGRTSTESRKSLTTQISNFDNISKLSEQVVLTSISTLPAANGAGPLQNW
# assay details: Measurement of orexin type 2 receptor agonist activity (FLIPR calcium fluorescence)
# Assay type: cell-based
# settings: CHO cells expressing hOX2R, FLIPR calcium fluorescence; read-out: hOx2 pEC50 (converted)
measured endpoint: EC50

1. [2H]c1ccc(-c2cc(F)cc(C[C@H]3[C@@H](NS(C)(=O)=O)C4(CC4)CN3C(=O)[C@H]3CCO3)c2F)cc1 10 to 100 nM
2. O=C([C@H]1CCO1)N1CC2(CC2)[C@H](NS(=O)(=O)c2c[nH]cn2)[C@@H]1Cc1cccc(-c2ccccc2)c1 10 to 100 nM
3. CC(F)(F)C(=O)N1CC2(CC2)[C@H](NS(C)(=O)=O)[C@@H]1Cc1cccc(-c2cccc(F)c2)c1F 10 to 100 nM

* * *

# assayed target: human orexin type 2 receptor (hOX2R) (Homo sapiens, UniProt O43614)
# Construct: expressed in transfected cells
# Sequence (O43614 1-444): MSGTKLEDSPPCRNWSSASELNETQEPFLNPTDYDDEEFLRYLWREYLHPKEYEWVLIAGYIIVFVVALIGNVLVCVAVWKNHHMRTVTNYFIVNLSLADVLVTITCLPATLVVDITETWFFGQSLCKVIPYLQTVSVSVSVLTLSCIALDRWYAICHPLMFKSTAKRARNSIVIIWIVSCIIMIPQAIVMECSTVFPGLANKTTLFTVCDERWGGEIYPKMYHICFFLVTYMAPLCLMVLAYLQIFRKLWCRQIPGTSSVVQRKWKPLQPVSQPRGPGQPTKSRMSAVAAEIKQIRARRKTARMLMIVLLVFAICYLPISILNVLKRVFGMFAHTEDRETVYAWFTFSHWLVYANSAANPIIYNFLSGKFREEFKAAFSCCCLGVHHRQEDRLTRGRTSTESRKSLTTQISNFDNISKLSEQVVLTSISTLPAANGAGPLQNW
# assay details: Measurement of orexin type 2 receptor agonist activity (FLIPR calcium fluorescence)
# Format: cell-based
# settings: CHO cells expressing hOX2R, FLIPR calcium fluorescence; read-out: hOx2 pEC50 (converted)
List of EC50 values.

molecule	EC50
O=C([C@H]1CCO1)N1CC2(CC2)[C@H](NS(=O)(=O)C(F)F)[C@@H]1Cc1cc(F)cc(-c2cccc(F)c2)c1F	1 to 10 nM
C[C@@H](F)C(=O)N1CC2(CC2)[C@H](NS(=O)(=O)CF)[C@@H]1Cc1cc(F)cc(-c2cc(F)cc(F)c2)c1F	0.0794 to 1 nM
CC[C@](C)(O)C(=O)N1CC2(CC2)[C@H](NS(=O)(=O)CF)[C@@H]1Cc1cccc(-c2cccc(F)c2)c1F	1 to 10 nM
C[C@@H](F)CNC(=O)N1CC2(CC2)[C@H](NS(=O)(=O)CF)[C@@H]1Cc1cccc(-c2ccccc2)c1F	1 to 10 nM
O=C(NCC(F)(F)F)N1CC2(CC2)[C@H](NS(=O)(=O)CF)[C@@H]1Cc1cccc(-c2ccccc2)c1F	1 to 10 nM
C[C@H]1C[C@@H]1S(=O)(=O)N[C@H]1[C@@H](Cc2cccc(-c3ccccc3)c2)N(C(=O)[C@H]2CCO2)CC12CC2 (relative stereo)	10 to 100 nM
[2H]C([2H])([2H])c1cccc(-c2cccc(C[C@H]3[C@@H](NS(=O)(=O)CF)C4(CC4)CN3C(=O)[C@H]3CCO3)c2F)c1	0.0794 to 1 nM
COCCNC(=O)N1CC2(CC2)[C@H](NS(C)(=O)=O)[C@@H]1Cc1cccc(-c2ccccc2)c1F [Compound 311]	1 to 10 nM
COC[C@H](C)NC(=O)N1CC2(CC2)[C@H](NS(C)(=O)=O)[C@@H]1Cc1cccc(-c2ccccc2)c1F	1 to 10 nM
CS(=O)(=O)N[C@@H]1[C@H](Cc2cccc(-c3ccccc3)c2F)N(C(=O)NCC2COC2)CC12CC2	1 to 10 nM
O=C([C@H](O)CF)N1CC2(CC2)[C@H](NS(=O)(=O)C(F)F)[C@@H]1Cc1cc(F)cc(-c2ccccc2)c1F	1 to 10 nM
CN(C)S(=O)(=O)N[C@@H]1[C@H](Cc2cccc(-c3ccccc3)c2F)N(C(=O)[C@H](O)C(F)(F)F)CC12CC2	0.0794 to 1 nM
O=C([C@@H](O)C1CC1)N1CC2(CC2)[C@H](NS(=O)(=O)C(F)F)[C@@H]1Cc1cc(F)cc(-c2cc(F)cc(F)c2)c1F	1 to 10 nM
